# target: Protein deacetylase HDAC6 (Homo sapiens)
# Sequence (Q9UBN7 whole entry): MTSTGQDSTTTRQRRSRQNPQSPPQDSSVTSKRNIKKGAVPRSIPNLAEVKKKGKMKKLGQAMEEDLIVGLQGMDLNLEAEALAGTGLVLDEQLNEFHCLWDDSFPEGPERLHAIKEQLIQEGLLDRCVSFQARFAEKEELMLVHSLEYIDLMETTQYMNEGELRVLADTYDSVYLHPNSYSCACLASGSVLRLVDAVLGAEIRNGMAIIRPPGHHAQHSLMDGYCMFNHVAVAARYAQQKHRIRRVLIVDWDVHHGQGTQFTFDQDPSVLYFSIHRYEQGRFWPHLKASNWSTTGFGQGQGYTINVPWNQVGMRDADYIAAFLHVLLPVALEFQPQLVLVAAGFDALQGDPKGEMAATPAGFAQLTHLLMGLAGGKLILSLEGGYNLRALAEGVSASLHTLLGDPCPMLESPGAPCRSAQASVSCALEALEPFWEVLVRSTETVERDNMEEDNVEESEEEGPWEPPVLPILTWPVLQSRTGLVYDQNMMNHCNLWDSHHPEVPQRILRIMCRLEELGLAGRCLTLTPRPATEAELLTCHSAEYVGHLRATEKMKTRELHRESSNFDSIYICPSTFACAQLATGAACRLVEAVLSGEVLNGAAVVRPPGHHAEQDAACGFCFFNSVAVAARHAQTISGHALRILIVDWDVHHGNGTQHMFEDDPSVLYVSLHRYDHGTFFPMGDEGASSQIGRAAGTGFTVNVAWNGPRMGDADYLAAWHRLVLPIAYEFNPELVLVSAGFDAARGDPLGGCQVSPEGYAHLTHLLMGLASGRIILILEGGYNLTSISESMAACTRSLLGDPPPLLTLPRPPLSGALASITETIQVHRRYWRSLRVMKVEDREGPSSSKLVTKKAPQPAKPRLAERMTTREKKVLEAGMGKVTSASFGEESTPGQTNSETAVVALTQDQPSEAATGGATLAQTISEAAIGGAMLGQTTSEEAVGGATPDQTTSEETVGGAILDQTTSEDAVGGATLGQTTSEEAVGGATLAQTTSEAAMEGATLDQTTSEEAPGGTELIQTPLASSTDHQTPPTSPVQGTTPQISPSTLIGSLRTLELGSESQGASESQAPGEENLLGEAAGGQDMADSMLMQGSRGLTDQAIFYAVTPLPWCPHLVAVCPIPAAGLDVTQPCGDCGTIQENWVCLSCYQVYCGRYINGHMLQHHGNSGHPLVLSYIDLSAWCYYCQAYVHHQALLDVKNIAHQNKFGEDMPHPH
# assay: Inhibition of human recombinant his tagged HDAC6 expressed in baculovirus infected […] insect cells using batcp as substrate incubated for 1 hr by fluorescence based assay
test_readout: IC50 (µM)

chem_smiles	test_readout	reported
O=C(CCNC(=S)Nc1ccc2c(c1)C(=O)NC2=O)NO	IC50	18.1
O=C(CCCNC(=S)Nc1ccc2c(c1)C(=O)NC2=O)NO	IC50	12.6
O=C(CCCCNC(=S)Nc1ccc2c(c1)C(=O)NC2=O)NO	IC50	14.7
O=C(CCCCCNC(=S)Nc1ccc2c(c1)C(=O)NC2=O)NO	IC50	3.19

* * *

# target: Histone deacetylase 1 (Homo sapiens)
# Sequence (Q13547 whole entry): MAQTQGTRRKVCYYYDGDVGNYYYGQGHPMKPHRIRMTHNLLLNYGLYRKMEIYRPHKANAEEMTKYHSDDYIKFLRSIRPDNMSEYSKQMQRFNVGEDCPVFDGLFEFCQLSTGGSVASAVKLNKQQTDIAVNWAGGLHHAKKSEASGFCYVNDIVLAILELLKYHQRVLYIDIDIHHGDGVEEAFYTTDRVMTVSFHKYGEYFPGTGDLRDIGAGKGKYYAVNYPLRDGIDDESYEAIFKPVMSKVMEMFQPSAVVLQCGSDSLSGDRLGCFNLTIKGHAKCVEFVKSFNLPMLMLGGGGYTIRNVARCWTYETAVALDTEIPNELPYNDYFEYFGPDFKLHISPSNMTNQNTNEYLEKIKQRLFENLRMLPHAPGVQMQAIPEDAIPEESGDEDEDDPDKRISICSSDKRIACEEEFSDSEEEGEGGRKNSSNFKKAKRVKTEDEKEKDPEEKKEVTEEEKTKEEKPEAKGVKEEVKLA
# assay: Inhibition of human recombinant his tagged HDAC1 expressed in baculovirus infected […] insect cells using tertbutyloxycarbonyl (Boc)-(Ac)-Lys-7-amino-4-methylcoumarin as substrate incubated for 1 hr by fluorescence based assay
pIC50: −log10 of the molar value.
test_readout: pIC50

Here's what some known entries look like.
chem_smiles	pIC50
O=C(CCNC(=S)Nc1ccc2c(c1)C(=O)NC2=O)NO	5.43
O=C(CCCCCNC(=S)Nc1ccc2c(c1)C(=O)NC2=O)NO	4.89

P. O=C(CCCCNC(=S)Nc1ccc2c(c1)C(=O)NC2=O)NO
Q. O=C(CCCNC(=S)Nc1ccc2c(c1)C(=O)NC2=O)NO
Query string: Given P and Q , report the one with the higher recorded pIC50. Return value: the label identifying the chosen record.
Result string: Q

Data provenance is ChEMBL document CHEMBL4433211.
